# ASSAYED_TARGET: STARD1 (Homo sapiens, UniProt P49675)
# Construct: STARD1(66-284); made in house; host or cells: E. coli BL21(DE3)
# Sequence (P49675 66-284): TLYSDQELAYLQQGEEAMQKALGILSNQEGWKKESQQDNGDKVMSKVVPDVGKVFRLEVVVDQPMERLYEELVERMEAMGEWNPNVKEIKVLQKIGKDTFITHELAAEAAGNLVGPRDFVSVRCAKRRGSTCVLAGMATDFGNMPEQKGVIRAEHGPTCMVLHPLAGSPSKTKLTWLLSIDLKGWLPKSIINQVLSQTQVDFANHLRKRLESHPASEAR
# PROTOCOL_SUMMARY: Fluorescence polarisation (FP) competition with NBD-cholesterol, STARD1
# Type: binding
# ASSAY_CONTEXT: single dose, Dose = 10 µM
MEASUREMENT_TYPE: inhibition at 10 µM (%)
Numeric only. Scale: %

Use these answered entries as a reference point.
Cc1ccc2c(c1)C(=O)CC[C@@H]1C[C@H](O)CC[C@]1(C)C(=O)N2 [Compound 11c] : 25
CC12CCC3CC1CCC21C(=Nc2ccc(N4CCNCC4)cc21)O3 (centres unmarked) : 13
C[C@]12CC[C@@H]3C[C@H]1CC[C@@]21C(=Nc2ccc(-c4ccccc4)cc21)O3 [Compound 21a] : 67
Cc1ccc2c(c1)[C@@]13CC[C@@H]4C[C@@H](CC[C@@]41C)OC3=N2 [Compound 15e] : 45

Alright, here's another compound for you.
Recorded inhibition at 10 µM (compound COc1ccc(-c2ccc3c(c2)C24CCC5CC(CCC52C)OC4=N3)cc1 (centres unmarked) [Compound 21b] ): 38

====

# ASSAYED_TARGET: ORP2 (Homo sapiens)
# Construct: ORP2(49-480); host or cells: E. coli BL21(DE3)
# Sequence (Q9H1P3 49-480): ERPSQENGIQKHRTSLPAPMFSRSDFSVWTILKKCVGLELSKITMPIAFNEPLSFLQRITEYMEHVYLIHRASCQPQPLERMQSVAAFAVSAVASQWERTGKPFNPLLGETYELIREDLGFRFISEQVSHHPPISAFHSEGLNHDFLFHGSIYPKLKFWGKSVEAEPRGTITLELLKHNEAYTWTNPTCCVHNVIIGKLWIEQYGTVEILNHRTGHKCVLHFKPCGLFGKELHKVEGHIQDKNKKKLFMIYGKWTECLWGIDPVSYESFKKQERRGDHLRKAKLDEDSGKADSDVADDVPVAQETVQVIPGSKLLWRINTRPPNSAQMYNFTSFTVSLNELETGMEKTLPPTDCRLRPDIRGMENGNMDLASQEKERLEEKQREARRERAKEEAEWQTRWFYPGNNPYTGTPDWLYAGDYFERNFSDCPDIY
# PROTOCOL_SUMMARY: Fluorescence polarisation (FP) competition with NBD-cholesterol, ORP2
# Format: binding
# ASSAY_CONTEXT: single dose, Dose = 10 µM
Item-by-item account of ORP2 (FP) inhibition
Don't forget the unit after the number, please.

Field ORP2 (FP) inhibition (entry CC12CCC3CC1CCC21C(=Nc2ccc(N4CCOCC4)cc21)O3 (single isomer, unassigned; (-)) [(−)-19a] ) reads 32%

# ORP2 (FP) inhibition (compound: C[C@]12CC[C@@H](O)C[C@H]1CCc1sc(-c3cccnc3)nc12 [Compound 8c] ) is 17%

// C[C@]12CC[C@@H](O)C[C@H]1CCc1sc(-c3ccc(F)cc3)nc12 [Compound 8e] : ORP2 (FP) inhibition value = 25%

Measured ORP2 (FP) inhibition of C[C@]12CC[C@@H](O)C[C@H]1CCc1c2[nH]c2ccc(I)cc12 [Compound 10h] : 63.5%

====

# ASSAYED_TARGET: STARD3 (Homo sapiens)
# Construct: STARD3(216-444); made in house; host or cells: E. coli BL21(DE3)
# Sequence (Q14849 216-444): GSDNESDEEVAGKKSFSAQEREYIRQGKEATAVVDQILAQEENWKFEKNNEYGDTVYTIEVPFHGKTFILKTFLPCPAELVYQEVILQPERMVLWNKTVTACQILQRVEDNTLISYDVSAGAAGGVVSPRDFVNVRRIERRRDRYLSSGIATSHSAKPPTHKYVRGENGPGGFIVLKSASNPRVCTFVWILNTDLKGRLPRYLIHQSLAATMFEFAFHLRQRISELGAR
# PROTOCOL_SUMMARY: Differential scanning fluorimetry (DSF), STARD3
# Assay type: binding
# ASSAY_CONTEXT: single dose, Dose = 10 µM
Lab note: cut-off is 0.08 °C. Strictly less in ΔTm at 10 µM is satisfied. Exactly 0.08 °C or more is not satisfied.

Inquiry: Confirm or reject: ΔTm at 10 µM of C[C@]12CC[C@@H](O)C[C@H]1CCc1c2nc2ccccc2c1-c1ccc(F)cc1 lies strictly below 0.08 °C
Reply text: satisfied

Inquiry: Does the reported ΔTm at 10 µM of the following compound sit strictly below 0.08 °C? C[C@@]12CC[C@H]3C[C@@H]1CC[C@]21C(=Nc2ccc(Br)cc21)O3 [(−)-15b]
Reply text: not satisfied

Inquiry: Regarding CC12CCC3CC1CCC21C(=Nc2ccc(Br)cc21)O3 (single isomer, unassigned; (+)) [(+)-15b] , kindly confirm whether its ΔTm at 10 µM is beneath 0.08 °C.
Reply text: not satisfied

Inquiry: Check if ΔTm at 10 µM falls below 0.08 °C for C[C@]12CC[C@@H](O)C[C@H]1CCc1c2[nH]c2c(F)cc(Cl)cc12 [Compound 10i] .
Reply text: satisfied

Inquiry: Strictly below 0.08 °C: is that where ΔTm at 10 µM of Cc1cc(C)c2c3c([nH]c2c1)[C@@]1(C)CC[C@@H](O)C[C@H]1CC3 [Compound 10j] sits?
Reply text: satisfied

Inquiry: # TODO verify ΔTm at 10 µM < 0.08 °C strictly for this compound: CCCCN(C)c1ccc2c(c1)[C@@]13CC[C@@H]4C[C@@H](CC[C@@]41C)OC3=N2 [Compound 19d]
Reply text: not satisfied

Inquiry: Criterion: ΔTm at 10 µM strictly below 0.08 °C. Is it met by COc1ccc(-c2ccc3c(c2)C24CCC5CC(CCC52C)OC4=N3)cc1 (stereo not drawn) [Compound 21b] ?
Reply text: not satisfied

Inquiry: Lab note: ΔTm at 10 µM threshold 0.08 °C. Does this compound come in strictly under it? Cc1cc2nc3c(nc2cc1C)[C@@]1(C)CC[C@@H](O)C[C@H]1CC3
Reply text: satisfied

====

Catalogue of molecules with associated inhibition at 10 µM
# ASSAYED_TARGET: Aster-B (Homo sapiens, UniProt Q3KR37)
# Construct: -B(364-552); GST (PreScission-cleavable) (N, cleaved yes); made in house; host or cells: E. coli OverExpress C41
# Sequence (Q3KR37 364-552): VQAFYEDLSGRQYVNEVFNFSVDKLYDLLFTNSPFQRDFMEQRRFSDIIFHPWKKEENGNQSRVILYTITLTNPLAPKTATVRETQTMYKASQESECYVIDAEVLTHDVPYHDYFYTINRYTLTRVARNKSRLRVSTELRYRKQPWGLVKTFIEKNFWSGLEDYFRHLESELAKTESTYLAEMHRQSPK
# PROTOCOL_SUMMARY: Fluorescence polarisation (FP) competition with NBD-cholesterol, Aster-B
# Type: binding
# ASSAY_CONTEXT: single dose, Dose = 10 µM
Number only, in %; omit the unit.

Record CC12CCC3CC1CCC21C(=Nc2ccc(N4CCOCC4)cc21)O3 (racemic) [Compound 19a] . Reported inhibition at 10 µM: 14

inhibition at 10 µM reported for this molecule COc1ccc2c(c1)[C@@]13CC[C@@H]4C[C@@H](CC[C@@]41C)OC3=N2 [Compound 15f] : 23

Recorded result, CC12CCC3CC1CCC21C(=Nc2ccc(Br)cc21)O3 (single isomer, unassigned; (+)) [(+)-15b] , inhibition at 10 µM: 3.33

// inhibition at 10 µM lookup, molecule = C[C@]12CC[C@@H]3C[C@H]1CC[C@@]21C(=Nc2ccc(N4CCN(Cc5ccncc5)CC4)cc21)O3 , result: 12

The value of inhibition at 10 µM measured for the molecule Cc1cc2nc3c(nc2cc1C)[C@@]1(C)CC[C@@H](O)C[C@H]1CC3 turned out to be 7.5

Measured inhibition at 10 µM of CC12CCC3CC1CCC21C(=Nc2ccc(N4CCOCC4)cc21)O3 (single isomer, unassigned; (+)) [(+)-19a] : 7.5

// inhibition at 10 µM value for C[C@]12CC[C@@H](O)C[C@H]1CCC(=O)c1cc(Br)ccc1NC2=O [Compound 11b] : 7.5

Item: Cc1cc(C)c2c(c1)NC(=O)[C@@]1(C)CC[C@@H](O)C[C@H]1CCC2=O [Compound 11g] | inhibition at 10 µM: 11

Sample CCCCN(C)c1ccc2c(c1)[C@@]13CC[C@@H]4C[C@@H](CC[C@@]41C)OC3=N2 [Compound 19d] ; inhibition at 10 µM observed: 16

The molecule COc1ccc2c(c1)C(=O)CC[C@@H]1C[C@H](O)CC[C@]1(C)C(=O)N2 [Compound 11d] showed inhibition at 10 µM equal to 4

The measured inhibition at 10 µM associated with Cc1c2c(nc3ccccc13)[C@@]1(C)CC[C@@H](O)C[C@H]1CC2 reads 14

Given item Cc1cc(C)c2c3c([nH]c2c1)[C@@]1(C)CC[C@@H](O)C[C@H]1CC3 [Compound 10j] , the value recorded as its inhibition at 10 µM is 16

inhibition at 10 µM reading for C[C@]12CC[C@@H](O)C[C@H]1CCc1[nH]c(-c3ccccc3)nc12 : 9

In plain terms, COc1ccc2c(c1)C(=O)N[C@]1(CCC[C@@H]3C[C@H](O)CC[C@@]31C)N2 has a documented inhibition at 10 µM of 12

// field: inhibition at 10 µM; key: CCCCCNc1ccc2c(c1)[C@@]13CC[C@@H]4C[C@@H](CC[C@@]41C)OC3=N2 [Compound 19c] ; value = 11

The recorded inhibition at 10 µM for entry C[C@]12CC[C@@H]3C[C@H]1CC[C@@]21C(=Nc2ccc(F)cc21)O3 [Compound 15d] equals 11

The origin of these recorded values is paper PMC11758220.
